assay: Ocular tissue distribution and pharmacokinetics, 7.5 and 15 mg/kg oral, pigmented Dutch Belted rabbits (Example 7); assay type: in vivo; details: Dutch Belted, rabbit, retina, oral, 15 mg/kg BID, DB rabbits, Day 15, 15 mg/kg BID, 96 hr; read-out: Mean Retina Concentration
propertyLabel: concentration at 96 h (ng/g)
Answers are plain numbers, in ng/g.

Data request: Would you mind telling me what concentration at 96 h value was observed for CC(=O)c1nn(CC(=O)N2C[C@H](F)C[C@H]2C(=O)Nc2cccc(Br)n2)c2ccc(-c3cnc(C)nc3)cc12 [Compound 1] ?
Data returned: 31.4

====

assay: Ocular tissue distribution and pharmacokinetics, 7.5 and 15 mg/kg oral, pigmented Dutch Belted rabbits (Example 7); type: in vivo; details: male, Dutch Belted, rabbit, retina, oral, […] BID, DB rabbits, Day 15, […] BID, 168 hr; read-out: Mean Retina Concentration
propertyLabel: concentration at 168 h
# include the unit after the value

Data request: Would you mind telling me what concentration at 168 h value was observed for `CC(=O)c1nn(CC(=O)N2C[C@H](F)C[C@H]2C(=O)Nc2cccc(Br)n2)c2ccc(-c3cnc(C)nc3)cc12` ?
Data returned: 10.7 ng/g

====

assay: Ocular tissue and plasma pharmacokinetics, 15 mg/kg single and BID oral, Dutch Belted rabbits (Example 3/5); assay type: in vivo; settings: Dutch Belted, rabbit, iris-ciliary body, po, 15 mg/kg, DB rabbit, 15 mg/kg BID oral, Day 15, 1 h; read-out: Mean Iris-Ciliary Body concentration
propertyLabel: concentration at 1 h (ng/g)
Answers are plain numbers, in ng/g.

Data request: Would you mind telling me what concentration at 1 h value was observed for `CC(=O)c1nn(CC(=O)N2C[C@H](F)C[C@H]2C(=O)Nc2cccc(Br)n2)c2ccc(-c3cnc(C)nc3)cc12` ?
Data returned: 4920

====

assay: Ocular tissue distribution and pharmacokinetics, 7.5 and 15 mg/kg oral, pigmented Dutch Belted rabbits (Example 7); type: in vivo; conditions: male, Dutch Belted, rabbit, plasma, po, 15 mg/kg, plasma, male DB rabbits, Group 3, Day 15, 15 mg/kg/dose BID oral (30 mg/kg/day); read-out: AUC0-240
propertyLabel: AUC(0-t) (ng·h/mL)
Answers are plain numbers, in ng·h/mL.

Data request: Would you mind telling me what AUC(0-t) value was observed for `CC(=O)c1nn(CC(=O)N2C[C@H](F)C[C@H]2C(=O)Nc2cccc(Br)n2)c2ccc(-c3cnc(C)nc3)cc12` ?
Data returned: 4390

====

experiment: Ocular tissue and plasma pharmacokinetics, 50 mg/kg BID oral, Dutch Belted rabbits (Example 4/5); format: in vivo; conditions: male, Dutch Belted, po; Vitreous Humor, DB rabbit, 50 mg/kg BID, Day 15
propertyLabel: half-life (h)
Numbers only, in h.

Data request: Would you mind telling me what half-life value was observed for CC(=O)c1nn(CC(=O)N2C[C@H](F)C[C@H]2C(=O)Nc2cccc(Br)n2)c2ccc(-c3cnc(C)nc3)cc12 [Compound 1] ?
Data returned: 5.44

====

experiment: Ocular tissue distribution and pharmacokinetics, 7.5 and 15 mg/kg oral, pigmented Dutch Belted rabbits (Example 7); type: in vivo; conditions: Dutch Belted, rabbit, choroid-RPE, oral, […], DB rabbits, Day 15, […] BID, 96 hr; read-out: Mean Choroid-RPE Concentration
propertyLabel: concentration at 96 h (ng/g)
One number for each entry, in ng/g.

Data request: Would you mind telling me what concentration at 96 h value was observed for CC(=O)c1nn(CC(=O)N2C[C@H](F)C[C@H]2C(=O)Nc2cccc(Br)n2)c2ccc(-c3cnc(C)nc3)cc12 [Compound 1] ?
Data returned: 238

====

test: Ocular tissue distribution and pharmacokinetics, 7.5 and 15 mg/kg oral, pigmented Dutch Belted rabbits (Example 7); format: in vivo; conditions: male, Dutch Belted, rabbit, iris-ciliary body (ICB), po, 15 mg/kg, ICB (OU), male DB rabbits, Group 3, Day 15, 15 mg/kg/dose BID oral (30 mg/kg/day)
propertyLabel: Cmax (ng/g)
One number for each entry, in ng/g.

Data request: Would you mind telling me what Cmax value was observed for CC(=O)c1nn(CC(=O)N2C[C@H](F)C[C@H]2C(=O)Nc2cccc(Br)n2)c2ccc(-c3cnc(C)nc3)cc12 [Compound 1] ?
Data returned: 2050

====

Assay: Ocular tissue and plasma pharmacokinetics, 15 mg/kg single and BID oral, Dutch Belted rabbits (Example 3/5)
Assay type: in vivo
Details: Dutch Belted, rabbit, choroid-RPE, po, 15 mg/kg, DB rabbit, 15 mg/kg single oral dose, Day 1, 1 h; read-out: Mean Choroid-RPE concentration
Method: Study design including group designation and dose levels are outlined in Table 4. […] Fifteen Dutch Belted and 5 New Zealand White rabbits were used as un-dosed controls. […] The dose volume was 5 mL/kg/dose for all groups. Safety was assessed with toxicological and ophthalmic examinations including slit lamp biomicroscopy, indirect ophthalmoscopy, rebound tonometry, and ultrasonic corneal pachymetry. Analyst® software (Version 1.6.2) was used to capture the LC-MS/MS data and integrate the peak areas. […]
propertyLabel: concentration at 1 h (ng/g)
Give bare numbers, in ng/g.

Data request: Would you mind telling me what concentration at 1 h value was observed for `CC(=O)c1nn(CC(=O)N2C[C@H](F)C[C@H]2C(=O)Nc2cccc(Br)n2)c2ccc(-c3cnc(C)nc3)cc12` ?
Data returned: 917

====

test: Ocular tissue distribution and pharmacokinetics, 15 mg/kg BID oral, nonpigmented New Zealand White rabbits (Example 7); type: in vivo; settings: New Zealand White, rabbit, retina, oral; NZW rabbits, Day 15, 15 mg/kg BID, 6 hr; read-out: Mean Retina Concentration
propertyLabel: concentration at 6 h (ng/g)
Give bare numbers, in ng/g.

Data request: Would you mind telling me what concentration at 6 h value was observed for CC(=O)c1nn(CC(=O)N2C[C@H](F)C[C@H]2C(=O)Nc2cccc(Br)n2)c2ccc(-c3cnc(C)nc3)cc12 [Compound 1] ?
Data returned: 86.1

====

experiment: Ocular tissue and plasma pharmacokinetics, 50 mg/kg BID oral, Dutch Belted rabbits (Example 4/5); assay type: in vivo; details: male, Dutch Belted, rabbit, retina, oral, 50 mg/kg, DB rabbits, Day 15, 50 mg/kg BID, 96 hr; read-out: Mean Retina Concentration
propertyLabel: concentration at 96 h (ng/g)
Numbers only, in ng/g.

Data request: Would you mind telling me what concentration at 96 h value was observed for `CC(=O)c1nn(CC(=O)N2C[C@H](F)C[C@H]2C(=O)Nc2cccc(Br)n2)c2ccc(-c3cnc(C)nc3)cc12` ?
Data returned: 32.3

====

experiment: Ocular tissue and plasma pharmacokinetics, 15 mg/kg single and BID oral, Dutch Belted rabbits (Example 3/5); assay type: in vivo; details: Dutch Belted, rabbit, retina, po, 15 mg/kg, DB rabbit, 15 mg/kg BID oral, Day 15, 6 h; read-out: Mean retina concentration
propertyLabel: concentration at 6 h (ng/g)
Give bare numbers, in ng/g.

Data request: Would you mind telling me what concentration at 6 h value was observed for CC(=O)c1nn(CC(=O)N2C[C@H](F)C[C@H]2C(=O)Nc2cccc(Br)n2)c2ccc(-c3cnc(C)nc3)cc12 [Compound 1] ?
Data returned: 237

====

experiment: Ocular tissue distribution and pharmacokinetics, 7.5 and 15 mg/kg oral, pigmented Dutch Belted rabbits (Example 7); assay type: in vivo; conditions: Dutch Belted, rabbit, choroid-retinal pigment epithelium (choroid-RPE), oral, […], DB rabbits, Day 15, […] BID, 240 hr; read-out: Mean Choroid-RPE Concentration
propertyLabel: concentration at 240 h

Data request: Would you mind telling me what concentration at 240 h value was observed for CC(=O)c1nn(CC(=O)N2C[C@H](F)C[C@H]2C(=O)Nc2cccc(Br)n2)c2ccc(-c3cnc(C)nc3)cc12 [Compound 1] ?
Data returned: 111 ng/g

====

experiment: Ocular tissue and plasma pharmacokinetics, 15 mg/kg single and BID oral, Dutch Belted rabbits (Example 3/5); assay type: in vivo; conditions: Dutch Belted, rabbit, choroid-RPE, oral, 15 mg/kg, DB rabbits, Day 15, 15 mg/kg BID, 240 hr; read-out: Mean Choroid-RPE Concentration
propertyLabel: concentration at 240 h (ng/g)
One number for each entry, in ng/g.

Data request: Would you mind telling me what concentration at 240 h value was observed for `CC(=O)c1nn(CC(=O)N2C[C@H](F)C[C@H]2C(=O)Nc2cccc(Br)n2)c2ccc(-c3cnc(C)nc3)cc12` ?
Data returned: 340

====

experiment: Ocular tissue and plasma pharmacokinetics, 50 mg/kg BID oral, Dutch Belted rabbits (Example 4/5); type: in vivo; conditions: male, Dutch Belted, rabbit, retina, po, 50 mg/kg, DB rabbit, 50 mg/kg BID oral, Day 15, 6 h; read-out: Mean retina concentration
propertyLabel: concentration at 6 h

Data request: Would you mind telling me what concentration at 6 h value was observed for `CC(=O)c1nn(CC(=O)N2C[C@H](F)C[C@H]2C(=O)Nc2cccc(Br)n2)c2ccc(-c3cnc(C)nc3)cc12` ?
Data returned: 725 ng/g
